Values were extracted from patent US20240366589A1.

System: phosphorus and calcium levels in the urine of rats
Run Description: Urinary excretion of phosphate and calcium in rats (16 h overnight urine)
Type: in vivo, rat
Measurement Setup: rats, oral gavage, dose 10 mg/kg, 16 h post-dose
Reported Property: Urine P % of control (%)
Numbers only, in %.

- Molecule: "CN(C)[C@H]1Cc2ccc(Cl)cc2[C@@H]1Oc1ccc(S(=O)(=O)NCCOCCOCCNC(=O)NCCCCNC(=O)NCCOCCOCCNS(=O)(=O)c2ccc(O[C@H]3c4cc(Cl)ccc4C[C@@H]3N(C)C)cc2)cc1 [compound 116]"
  Readout Unit: "%"
  Reading: 130
- Molecule: "CN1Cc2c(Cl)cc(Cl)cc2[C@H](c2cccc(S(=O)(=O)NCCOCCOCCOCCNCc3ccc(-c4ccc(Cl)cc4)cc3)c2)C1 [compound 112]"
  Readout Unit: "%"
  Reading: 67
- Molecule: "CN1Cc2c(Cl)cc(Cl)cc2[C@H](c2cccc(S(=O)(=O)NCCOCCOCCNC(=O)CN(CCOCCOCCN(CC(=O)NCCOCCOCCNS(=O)(=O)c3cccc([C@@H]4CN(C)Cc5c(Cl)cc(Cl)cc54)c3)CC(=O)NCCOCCOCCNS(=O)(=O)c3cccc([C@@H]4CN(C)Cc5c(Cl)cc(Cl)cc54)c3)CC(=O)NCCOCCOCCNS(=O)(=O)c3cccc([C@@H]4CN(C)Cc5c(Cl)cc(Cl)cc54)c3)c2)C1 [compound 85]"
  Readout Unit: "%"
  Reading: 85
- Molecule: "C/C(=C\\c1cc(F)c(Oc2ccc(S(=O)(=O)NCCOCCOCCOCCNC(=O)N3CCN(C(=O)NCCOCCOCCOCCNS(=O)(=O)c4ccc(Oc5c(F)cc(/C=C(\\C)C(=O)N=C(N)N)cc5F)cc4)CC3)cc2)c(F)c1)C(=O)N=C(N)N [compound 31]"
  Readout Unit: "%"
  Reading: 81

Query: I would be grateful if you could share the reported Urine P % of control for C/C(=C\c1cc(F)c(Oc2ccc(S(=O)(=O)NCCOCCOCCOCCNC(=O)COCC(=O)NCCOCCOCCOCCNS(=O)(=O)c3ccc(Oc4c(F)cc(/C=C(\C)C(=O)N=C(N)N)cc4F)cc3)cc2)c(F)c1)C(=O)N=C(N)N [compound 15] .
Response: 65
